Assign melting point to each entry below.

For the molecule O=C(O)CCCc1cccc(NC(=O)[C@@H](CS)Cc2ccccc2)c1 , give its measured melting point value.
149 to 152 °C

For the molecule CCCCCCCC(=O)SSC(=O)CCCCCCC , give its measured melting point value.
36 to 38 °C

For the molecule COc1cc2c(cc1Br)C(c1ccccc1Cl)=NC1=C(C)NNC1=N2 , give its measured melting point value.
210 to 211 °C

For the molecule N#Cc1ccccc1Cn1nnc2cc3c(cc2c1=O)OC1CCCN1C3=O (stereo unspecified) , give its measured melting point value.
257 to 260 °C

For the molecule C#CC(=O)NC[C@@H]1CN2C(=O)C[C@H]2O1 (racemic) , give its measured melting point value.
76.5 to 78 °C

For the molecule Cc1cc2cc(C#N)c(Cl)nc2s1 , give its measured melting point value.
171 to 173 °C

For the molecule Cc1cc(-c2nncc3c(C(C)(C)C)c(OCc4ccncc4)nn23)no1 , give its measured melting point value.
119 to 121 °C

For the molecule Cn1nc(C2(OCC3CCN(C(=O)OC(C)(C)C)CC3)C=CC=CC2)c2ccccc2c1=O (stereo unspecified) , give its measured melting point value.
167 to 169 °C

For the molecule C#CCOc1cc(N)c(F)cc1Cl , give its measured melting point value.
61 to 61.5 °C

For the molecule c1ccc2nc(COc3cccc4cccnc34)ccc2c1 , give its measured melting point value.
95 to 96 °C

For the molecule COC(=O)C(CO)N(Cc1cc(F)ccc1[N+](=O)[O-])S(=O)(=O)c1ccc(OC)cc1 (stereo unspecified) , give its measured melting point value.
83 to 88 °C

For the molecule O=C1C(Cl)=C(Cl)C(=O)c2ncccc21 , give its measured melting point value.
221 to 222 °C

For the molecule CCOC(=O)C(C1c2ccccc2C=Cc2ccccc21)[N+](=O)[O-] (stereo unspecified) , give its measured melting point value.
101 to 103 °C

For the molecule Cc1ccc(C(=O)n2c(C)c(C(C)C(=O)O)c3cc4c(cc32)OCO4)cc1 (stereo unspecified) , give its measured melting point value.
172 to 175 °C

For the molecule O=C(Nc1ccc2oc3c(c2c1)CCCC3)c1ccc([N+](=O)[O-])cc1 , give its measured melting point value.
279 to 280 °C

For the molecule O=C1Nc2cccnc2N(C(=O)N2CCCC(CCCCN3CCCC3)C2)c2ccccc21 (stereo unspecified) , give its measured melting point value.
153 to 156 °C

For the molecule COc1cc(NC(C)=O)ccc1C=NNC(=N)NN=Cc1ccc(NC(C)=O)cc1OC , give its measured melting point value.
287 to 288 °C

For the molecule O=C(O)c1ccc(=O)n(CCCNC(=O)c2ccccn2)c1 , give its measured melting point value.
180 to 182 °C

For the molecule COc1ccc(CC(NC(=O)c2ccccc2)c2cccnc2)cc1OC (stereo unspecified) , give its measured melting point value.
156 to 158 °C

For the molecule CCCCCCC(O)CCCCCCCCCCCOCC(O)CNCCO (stereo unspecified) , give its measured melting point value.
71.8 to 72.5 °C

For the molecule N#CCCNC(=O)c1cccc(-c2ccc3ccn(Cc4ccc(Cl)cc4Cl)c3n2)c1 , give its measured melting point value.
186 to 187 °C

For the molecule CC(=O)c1ccc2c(c1)CCC1(CC2)CC1 , give its measured melting point value.
56 to 58 °C

For the molecule CN1CCN(CCCNC(=O)CN2CCCC2=O)CC1 , give its measured melting point value.
93 °C

For the molecule COCOc1cccc(-c2ccc(-c3ccc(C(=O)O)cc3)cc2-c2ccc3c(c2)C(C)(C)CCC3(C)C)c1 , give its measured melting point value.
103 to 104 °C

For the molecule Cc1cc([N+](=O)[O-])cc(C)c1NS(=O)(=O)CCSCCN , give its measured melting point value.
159 °C

For the molecule CCCCc1ncc(/C=C2\C(=O)NC(=O)N2Cc2ccccc2)n1Cc1ccc(C(=O)O)cc1 , give its measured melting point value.
297 to 298 °C

For the molecule COc1cc(C(=O)N2Cc3ccccc3Cc3ccccc32)ccc1NC(=O)c1ccc(Cl)cc1Cl , give its measured melting point value.
212 to 214 °C

For the molecule CCOC(=O)Cc1ccc(-n2cc(F)cn2)cc1 , give its measured melting point value.
83.5 to 84.5 °C

For the molecule COC(=O)c1ccc(OCCNC(=O)C2Cc3ccccc3N2S(=O)(=O)c2ccc(-c3cccc(C(F)(F)F)c3)cc2)c(C)c1 (stereo unspecified) , give its measured melting point value.
68 to 74 °C

For the molecule Nc1nc(SCc2ccccn2)nc(Cl)c1Br , give its measured melting point value.
119 to 120 °C

For the molecule CCCCCc1ccc(CCCCCC(=O)O)cc1 , give its measured melting point value.
29 to 30 °C

For the molecule O=S(=O)(c1ccc(Cl)cc1)C(CCO)c1cc(F)ccc1F (stereo unspecified) , give its measured melting point value.
147 to 149 °C

For the molecule CN(C)c1ccc(NC(=O)Nc2ccc3c(ccn3C)c2)cn1 , give its measured melting point value.
220 to 226 °C

For the molecule CC(C)Cn1c(-c2ccccc2)nc2cnc3ccccc3c21 , give its measured melting point value.
139 to 140 °C

For the molecule CCCCOc1cc(C(=O)O)n(Cc2ccc(C(F)(F)F)cc2)n1 , give its measured melting point value.
128 to 129 °C

For the molecule N=C(NC=Cc1ccc([N+](=O)[O-])cc1)c1ccc([N+](=O)[O-])cc1 , give its measured melting point value.
214 to 216 °C

For the molecule O[C@H]1[C@H](O)CS[C@H]1n1cnc2c(Cl)ncnc21 , give its measured melting point value.
192 to 193 °C

For the molecule CN1C(C)(C)CN(CCO)C(=O)C1(C)C , give its measured melting point value.
77 to 80 °C

For the molecule Oc1cccc2c1CC1OC1C2 (stereo unspecified) , give its measured melting point value.
143 to 146 °C

For the molecule CN1C(=O)[C@@H](N)[C@@H]1c1ccccc1 (relative stereo) , give its measured melting point value.
51.5 °C

For the molecule c1ccc(OC2CN(C(c3ccccc3)c3ccccc3)C2)cc1 , give its measured melting point value.
83 to 85 °C

---

Assign melting point to each entry below.

For the compound O=C(O)C(=O)Cc1ccsc1 , give its measured melting point value.
203 to 204 °C

For the compound Clc1ccccc1Oc1ccnc2c(Cl)cccc12 , give its measured melting point value.
56 to 58 °C

For the compound Cc1nc(-c2ccc(C(=O)c3ccccc3)cc2)sc1C(=O)O , give its measured melting point value.
217 to 218 °C

For the compound COc1cc2c(cc1OC)[C@@H]1CN(C)CC[C@@H]1N=C2c1ccc(NC(=O)C(C)(C)C)cc1 (relative stereo) , give its measured melting point value.
245 °C

For the compound CCCCN1CNC(=O)NC1=O , give its measured melting point value.
205 to 207 °C

For the compound COc1ccccc1-c1[nH]nc2c1C(=O)c1c(NC(C)=O)cccc1-2 , give its measured melting point value.
276 °C

For the compound COC(=O)[C@H](Cc1cccc(O)c1)NC(=O)OC(C)(C)C , give its measured melting point value.
61 to 65 °C

For the compound Cc1cc(Nc2ccn(-c3ccccc3)n2)cc(C)c1O , give its measured melting point value.
154 to 155 °C

For the compound CN1CCn2nc(Nc3cc(Cl)nn(C)c3=O)cc2C1 , give its measured melting point value.
175 to 176 °C

For the compound CNC(=S)NCCSCc1c[nH]cn1 , give its measured melting point value.
96 to 98 °C

For the compound c1ccc2c(N3CCNCC3)n[nH]c2c1 , give its measured melting point value.
139 to 150 °C

For the compound O=C(/C=C/c1ccc2ccccc2c1)Nc1cc(Cl)ccc1OCc1nnn[nH]1 , give its measured melting point value.
218 to 223 °C

For the compound CCCc1c(OCc2ccc(/C=C3\SC(=S)NC3=O)cc2)ccc(C(=O)c2ccccc2)c1O , give its measured melting point value.
229 to 230 °C

For the compound O=C1NC(=O)C2(C=Cc3c2csc3Cl)N1 (stereo not drawn) , give its measured melting point value.
224 to 225 °C

For the compound COc1ccc2snnc2c1S(=O)(=O)Cl , give its measured melting point value.
131 to 134 °C

For the compound CC1Cc2ccccc2NC1C1=NCCN1 (stereo not drawn) , give its measured melting point value.
138 to 139 °C

For the compound C=C(Cl)CN1C(=O)c2ccccc2Oc2ncccc21 , give its measured melting point value.
106 to 108 °C

For the compound O=C(Nc1ccc(O)cc1[N+](=O)[O-])OCCCl , give its measured melting point value.
170 °C

For the compound CC(C)C[C@H](CC(=O)NC1CCCCC1)C(=O)OCc1ccccc1 , give its measured melting point value.
99 to 102 °C

For the compound O=c1[nH]ccc2c1C(c1cccc([N+](=O)[O-])c1)N=C(c1ccccc1)N2 (stereo not drawn) , give its measured melting point value.
206 to 207 °C

For the compound CC(=O)Nc1ccc(-n2ccnc2S(=O)Cc2ccccc2N(C)C)nc1 (stereo not drawn) , give its measured melting point value.
168 to 170 °C

For the compound COc1cc2c(cc1OC)C(C)C(C)=NN=C2c1cccc(Cl)c1 (stereo not drawn) , give its measured melting point value.
156 to 158 °C

For the compound CCN(CC)C(=O)Cc1c(-c2ccc(F)cc2)nc2c(C)cc(C)nn12 , give its measured melting point value.
139 to 143 °C
